target: PRMT5 (Homo sapiens, UniProt O14744); construct: purchased Viva (custom protein); test: PRMT5 biochemical IC50 assay with SAM as cofactor; details: PRMT5, SAM as cofactor; read-out: SAM IC50
Sequence (O14744 whole entry): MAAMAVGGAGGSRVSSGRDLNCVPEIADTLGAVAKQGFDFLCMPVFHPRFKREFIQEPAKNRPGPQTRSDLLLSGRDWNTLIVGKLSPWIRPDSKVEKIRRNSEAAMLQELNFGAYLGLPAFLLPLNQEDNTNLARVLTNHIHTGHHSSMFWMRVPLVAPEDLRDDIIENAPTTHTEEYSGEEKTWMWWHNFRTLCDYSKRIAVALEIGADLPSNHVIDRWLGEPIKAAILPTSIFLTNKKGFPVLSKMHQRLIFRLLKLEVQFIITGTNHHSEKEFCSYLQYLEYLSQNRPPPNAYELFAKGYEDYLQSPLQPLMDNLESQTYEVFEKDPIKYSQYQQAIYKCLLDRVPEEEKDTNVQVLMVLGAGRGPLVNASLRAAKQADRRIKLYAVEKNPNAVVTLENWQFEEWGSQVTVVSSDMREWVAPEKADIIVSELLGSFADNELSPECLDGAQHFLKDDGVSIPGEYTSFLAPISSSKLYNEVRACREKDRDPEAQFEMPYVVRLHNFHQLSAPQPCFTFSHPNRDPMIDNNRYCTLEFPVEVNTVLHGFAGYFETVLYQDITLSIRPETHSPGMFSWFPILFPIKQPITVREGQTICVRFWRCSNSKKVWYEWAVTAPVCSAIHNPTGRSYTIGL
Sequence (Q9BQA1 whole entry partner): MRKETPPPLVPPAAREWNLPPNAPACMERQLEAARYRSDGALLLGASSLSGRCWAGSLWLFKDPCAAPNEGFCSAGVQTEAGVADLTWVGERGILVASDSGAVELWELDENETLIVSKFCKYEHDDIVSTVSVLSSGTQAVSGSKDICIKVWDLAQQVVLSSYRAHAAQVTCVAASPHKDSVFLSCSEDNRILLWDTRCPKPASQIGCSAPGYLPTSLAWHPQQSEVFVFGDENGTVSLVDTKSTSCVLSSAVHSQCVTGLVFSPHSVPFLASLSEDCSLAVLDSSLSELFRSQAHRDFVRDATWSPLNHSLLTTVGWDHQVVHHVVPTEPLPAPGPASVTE
Property: IC50; scope: individual compounds
READOUT_NAME: IC50

CCc1cc(NC(=O)C(=O)N2C[C@@H](C)CC[C@@H]2c2ccc(NC3CCN(C)CC3)nc2)cnc1N : 50 to 500 nM
CNC(=O)c1ccc([C@@H]2CC[C@@H](C)CN2C(=O)C(=O)Nc2cnc(N)c(C)c2)s1 (single isomer, unassigned) : > 500 nM
CNc1ccc([C@H]2CC[C@@H](C)CN2C(=O)C(=O)Nc2cnc(OC)c(C(N)=O)c2)cn1 (single isomer, unassigned) : > 500 nM
CCc1cc(NC(=O)C(=O)N2C[C@@H](C)[C@H](OC(C)C)C[C@@H]2c2ccc3scnc3c2)cnc1N (racemic) : 50 to 500 nM
COc1ncc(NC(=O)C(=O)N2C[C@H](C)CC[C@H]2c2cc(F)c(F)c(F)c2)cc1C(N)=O (single isomer, unassigned) : 50 to 500 nM
C[C@@H]1C[C@H](C)[C@@H](c2ccccc2)N(C(=O)C(=O)Nc2cncc(C(N)=O)c2)C1 (single isomer, unassigned) : 50 to 500 nM
Cc1cc(NC(=O)C(=O)N2C[C@@H](C)C(F)(F)C[C@@H]2c2ccc(F)c(F)c2)cnc1N (single isomer, unassigned) : 50 to 500 nM
C[C@@H]1CC[C@@H](c2cn[nH]c2)N(C(=O)C(=O)Nc2cncc(C(N)=O)c2)C1 (single isomer, unassigned) : > 500 nM
CC[C@H]1CC[C@H](c2ccccc2)N(C(=O)C(=O)Nc2cncc(C)c2)C1 (single isomer, unassigned) : > 500 nM
C[C@@H]1CC[C@@H](c2cc(F)cc(Cl)c2)N(C(=O)C(=O)Nc2cncc(C(N)=O)c2)C1 (single isomer, unassigned) : > 500 nM
CCc1cc(NC(=O)C(=O)N2C[C@@H](C)CC[C@@H]2c2ccc3sc([C@H]4CCN(C)C4)nc3c2)cnc1N (single isomer, unassigned) : < 50 nM
Cc1cc(NC(=O)C(=O)N2C[C@H](C)CC[C@H]2C2CC3(CCC3)C2)cnc1N (racemic) : > 500 nM
C[C@H]1CC[C@H](c2ccc3sc(N)nc3c2)N(C(=O)C(=O)Nc2cncc(C(N)=O)c2)C1 (single isomer, unassigned) : 50 to 500 nM
C[C@@H]1CC[C@@](C)(c2ccccc2)N(C(=O)C(=O)Nc2cncc(C(N)=O)c2)C1 (racemic) : > 500 nM
Cc1ncc(NC(=O)C(=O)N2C[C@@H](C)CC[C@@H]2c2ccc3c(c2)CCC(=O)N3)cc1C(F)(F)F (single isomer, unassigned) : > 500 nM
COc1ncc(NC(=O)C(=O)N2C[C@H](C)CC[C@H]2c2ccc(C)cn2)cc1C(N)=O (racemic) : 50 to 500 nM
C[C@H]1CC[C@H](c2ccc(N[C@H](C)C(=O)N(C)C)cc2)N(C(=O)C(=O)Nc2cncc(C(N)=O)c2)C1 (racemic) : 50 to 500 nM
CCc1cc(NC(=O)C(=O)N2C[C@@H](C)CC[C@@H]2c2cccc(OC[C@@H](C)N(C)C)c2)cnc1N : 50 to 500 nM
Cc1ccc([C@@H]2CC[C@@H](C)CN2C(=O)C(=O)Nc2cnc(N)c(C)c2)cn1 (single isomer, unassigned) : 50 to 500 nM
CC(=O)Nc1ccc([C@H]2CC[C@H](C)CN2C(=O)C(=O)Nc2cnc(N)c(C)c2)cc1 (single isomer, unassigned) : > 500 nM
Cc1nc2cc([C@@H]3CC[C@@H](C)CN3C(=O)C(=O)Nc3cncc(C(N)=O)c3)ccc2s1 (single isomer, unassigned) : 50 to 500 nM
CCc1cc(NC(=O)C(=O)N2C[C@@H](C)CC[C@@H]2c2cccc([C@H]3CCN(C)C3)c2)cnc1N : < 50 nM
Cc1cc(NC(=O)C(=O)N2CC[C@@H](C#N)C[C@H]2c2ccccc2)cnc1N (single isomer, unassigned) : 50 to 500 nM
Cc1cc(NC(=O)C(=O)N2C[C@H](C)CC[C@H]2c2ccc(CCN(C)C)cc2)cnc1N (single isomer, unassigned) [Compound 1358] : 50 to 500 nM
COc1cc([C@@H]2CC[C@@H](C)CN2C(=O)C(=O)Nc2cncc(C(N)=O)c2)ccc1F (racemic) : 50 to 500 nM
